test system: 186277-243-T-J2-PDC complex spheroid viability; assay: Anticancer human tumor 186277-243-T-J2-PDC patient-derived colon adenocarcinoma cell line growth inhibition [POLQ]; settings: curve of first compound; second compound 0.1 µM
Value kind: IC50

Lookup result for Cn1ncnc1[C@H]1c2n[nH]c(=O)c3cc(F)cc(c23)N[C@@H]1c1ccc(F)cc1 + Cc1cccc(N(C)C(=O)C2C(O)CCN2c2nc(C)cc(C(F)(F)F)c2C#N)c1 ; measured IC50: > 0.1 µM

// IC50 lookup, compound = CCc1cc2c(N3CCc4c(cc(Cn5ccnc5)cc4-c4cn(C)nc4C(F)(F)F)C3=O)ccnc2c(OC)n1 + Nc1ccc(C#CCN(C(=O)Cc2ncc(C(F)(F)F)cc2C(F)(F)F)c2ccc(F)cc2)nn1 , result: > 10 µM

Lookup result for O=C(Nc1ccc(O)c(NS(=O)(=O)c2ccc(F)cc2)c1)c1ccc(-c2ccccc2)cc1 + Cc1cccc(N(C)C(=O)C2C(O)CCN2c2nc(C)cc(C(F)(F)F)c2C#N)c1 ; measured IC50: > 10 µM

* * *

tested on: 186277-243-T-J2-PDC complex spheroid viability; test: Anticancer human tumor 186277-243-T-J2-PDC cell line growth inhibition [POLQ]; conditions: curve of first compound; second compound 0.0316 µM;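 further: spheroids exposed to compounds for seven days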
Please provide measured IC50 for the entries that follow.

Entry CCc1cc2c(N3CCc4c(cc(Cn5ccnc5)cc4-c4cn(C)nc4C(F)(F)F)C3=O)ccnc2c(OC)n1 + Nc1ccc(C#CCN(C(=O)Cc2ncc(C(F)(F)F)cc2C(F)(F)F)c2ccc(F)cc2)nn1 , IC50 reported as > 10 µM

Query CCc1cc2c(N3CCc4c(cc(Cn5ccnc5)cc4-c4cn(C)nc4C(F)(F)F)C3=O)cc(C)nc2c(OC)n1 + COC1C(OC(N)=O)C(O)C(Oc2ccc3c(O)c(NC(=O)c4ccc(O)c(CC=C(C)C)c4)c(=O)oc3c2C)OC1(C)C yields IC50 of > 10 µM

// O=C(c1cc(Cc2n[nH]c(=O)c3ccccc23)ccc1F)N1CCN(C(=O)C2CC2)CC1 + COC1C(OC(N)=O)C(O)C(Oc2ccc3c(O)c(NC(=O)c4ccc(O)c(CC=C(C)C)c4)c(=O)oc3c2C)OC1(C)C : IC50 value = > 10 µM

Value of measured IC50 for the entry CCCS(=O)(=O)Nc1ccc(F)c(C(=O)c2c[nH]c3ncc(-c4ccc(Cl)cc4)cc23)c1F + Cc1cccc(N(C)C(=O)C2C(O)CCN2c2nc(C)cc(C(F)(F)F)c2C#N)c1 : > 10 µM

Reported IC50 for CC(C)n1c(=O)n(C)c2cnc3cc(F)c(-c4ccc(OCCCN5CCCCC5)nc4)cc3c21 + Cc1cccc(N(C)C(=O)C2C(O)CCN2c2nc(C)cc(C(F)(F)F)c2C#N)c1 was > 10 µM

Entry CCCS(=O)(=O)Nc1ccc(F)c(C(=O)c2c[nH]c3ncc(-c4ccc(Cl)cc4)cc23)c1F + Nc1ccc(C#CCN(C(=O)Cc2ncc(C(F)(F)F)cc2C(F)(F)F)c2ccc(F)cc2)nn1 ; IC50 = > 10 µM

The compound listed as CC(=O)O[C@H]1C(=O)[C@@]2(C)[C@H]([C@H](OC(=O)c3ccccc3)[C@]3(O)C[C@H](OC(=O)[C@H](O)[C@@H](NC(=O)c4ccccc4)c4ccccc4)C(C)=C1C3(C)C)[C@]1(OC(C)=O)CO[C@@H]1C[C@@H]2O + Cc1cccc(N(C)C(=O)C2C(O)CCN2c2nc(C)cc(C(F)(F)F)c2C#N)c1 has a reported IC50 of < 0.00949 µM

Data point: CC(=O)O[C@H]1C(=O)[C@@]2(C)[C@H]([C@H](OC(=O)c3ccccc3)[C@]3(O)C[C@H](OC(=O)[C@H](O)[C@@H](NC(=O)c4ccccc4)c4ccccc4)C(C)=C1C3(C)C)[C@]1(OC(C)=O)CO[C@@H]1C[C@@H]2O + Nc1ccc(C#CCN(C(=O)Cc2ncc(C(F)(F)F)cc2C(F)(F)F)c2ccc(F)cc2)nn1 ; IC50 = < 0.00949 µM

So, C=CC(=O)N1CCN(c2nc(=O)n(-c3c(C)ccnc3C(C)C)c3nc(-c4c(O)cccc4F)c(F)cc23)C(C)C1 (stereo unspecified) + COC1C(OC(N)=O)C(O)C(Oc2ccc3c(O)c(NC(=O)c4ccc(O)c(CC=C(C)C)c4)c(=O)oc3c2C)OC1(C)C ? Its IC50 was > 10 µM

IC50 in this record for COc1cc2cc(C(=O)CCC(=O)O)sc2cc1OC + COC1C(OC(N)=O)C(O)C(Oc2ccc3c(O)c(NC(=O)c4ccc(O)c(CC=C(C)C)c4)c(=O)oc3c2C)OC1(C)C : > 10 µM

Per the record, Nc1ccn(C2OC(CO)C(O)C2(F)F)c(=O)n1 (stereo unspecified) + COC1C(OC(N)=O)C(O)C(Oc2ccc3c(O)c(NC(=O)c4ccc(O)c(CC=C(C)C)c4)c(=O)oc3c2C)OC1(C)C has IC50 of < 0.0316 µM

* * *

test system: 186277-243-T-J2-PDC complex spheroid viability; assay: Anticancer human tumor 186277-243-T-J2-PDC cell line growth inhibition [POLQ]; details: second compound 0.1 µM; first compound 1 µM; active = viability on the fitted dose curve at most 10% of control; inactive = the rest;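 further: spheroids exposed to compounds for seven days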
# output must be one of active, inactive

Inquiry: Outcome logged for O=c1[nH]cc(F)c(=O)[nH]1 + COC1C(OC(N)=O)C(O)C(Oc2ccc3c(O)c(NC(=O)c4ccc(O)c(CC=C(C)C)c4)c(=O)oc3c2C)OC1(C)C in this assay:
Reply text: inactive

Inquiry: Recorded call for COc1cccc2c1C(=O)c1c(O)c3c(c(O)c1C2=O)CC(O)(C(=O)CO)CC3OC1CC(N)C(O)C(C)O1 (configuration not stated) + Nc1ccc(C#CCN(C(=O)Cc2ncc(C(F)(F)F)cc2C(F)(F)F)c2ccc(F)cc2)nn1 ?
Reply text: active

Inquiry: Identify the outcome logged in this assay for the compound shown: C=CCn1c(=O)c2cnc(Nc3ccc(N4CCN(C)CC4)cc3)nc2n1-c1cccc(C(C)(C)O)n1 + Nc1ccc(C#CCN(C(=O)Cc2ncc(C(F)(F)F)cc2C(F)(F)F)c2ccc(F)cc2)nn1
Reply text: inactive

Inquiry: Look up the recorded call for C#Cc1c(F)ccc2cc(O)cc(-c3ncc4c(N5CC6CCC(C5)N6)nc(OCC56CCCN5CC(F)C6)nc4c3F)c12 (configuration not stated) + Nc1ccc(C#CCN(C(=O)Cc2ncc(C(F)(F)F)cc2C(F)(F)F)c2ccc(F)cc2)nn1 in this test.
Reply text: inactive

Inquiry: Hello, I am checking results. What call was entered for CCc1c2c(nc3ccc(O)cc13)-c1cc3c(c(=O)n1C2)COC(=O)[C@]3(O)CC + Nc1ccc(C#CCN(C(=O)Cc2ncc(C(F)(F)F)cc2C(F)(F)F)c2ccc(F)cc2)nn1 ?
Reply text: inactive

Inquiry: Recorded test outcome, item C=CC(=O)N1CCN(c2nc(=O)n(-c3c(C)ccnc3C(C)C)c3nc(-c4c(O)cccc4F)c(F)cc23)C(C)C1 (configuration not stated) + Nc1ccc(C#CCN(C(=O)Cc2ncc(C(F)(F)F)cc2C(F)(F)F)c2ccc(F)cc2)nn1
Reply text: inactive

Inquiry: Record request — test call for CC1COCCN1c1cc(C2(S(C)(=N)=O)CC2)nc(-c2ccnc3[nH]ccc23)n1 (configuration not stated) + Cc1cccc(N(C)C(=O)C2C(O)CCN2c2nc(C)cc(C(F)(F)F)c2C#N)c1
Reply text: inactive

* * *

Please go through the items and note down their pIC50.
test system: 186277-243-T-J2-PDC complex spheroid viability; experiment: Anticancer human tumor 186277-243-T-J2-PDC cell line growth inhibition [POLQ]; conditions: curve of first compound; second compound 0.1 µM;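 further: spheroids exposed to compounds for seven days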
pIC50: −log10 of the molar value.

So, COc1ccc([C@@H](O)c2cc(-c3ncnc4cc(N5CCOCC5)ccc34)c(F)cc2Cl)nn1 + Nc1ccc(C#CCN(C(=O)Cc2ncc(C(F)(F)F)cc2C(F)(F)F)c2ccc(F)cc2)nn1 ? Its pIC50 was < 5.00

Given item Cn1ncnc1[C@H]1c2n[nH]c(=O)c3cc(F)cc(c23)N[C@@H]1c1ccc(F)cc1 + Nc1ccc(C#CCN(C(=O)Cc2ncc(C(F)(F)F)cc2C(F)(F)F)c2ccc(F)cc2)nn1 , the value recorded as its pIC50 is < 7.00

The recorded pIC50 for entry C=CC(=O)N1CCN(c2nc(=O)n(-c3c(C)ccnc3C(C)C)c3nc(-c4c(O)cccc4F)c(F)cc23)C(C)C1 (centres undefined) + COC1C(OC(N)=O)C(O)C(Oc2ccc3c(O)c(NC(=O)c4ccc(O)c(CC=C(C)C)c4)c(=O)oc3c2C)OC1(C)C equals < 5.00

The molecule identified as COc1cccc(OCCCN)c1-c1cc(Nc2cnc(C#N)cn2)n[nH]1 + Nc1ccc(C#CCN(C(=O)Cc2ncc(C(F)(F)F)cc2C(F)(F)F)c2ccc(F)cc2)nn1 registered its pIC50 at > 8.50

Reported pIC50 ( COc1cc2cc(C(=O)CCC(=O)O)sc2cc1OC + COC1C(OC(N)=O)C(O)C(Oc2ccc3c(O)c(NC(=O)c4ccc(O)c(CC=C(C)C)c4)c(=O)oc3c2C)OC1(C)C ) = < 5.00

For this molecule ( CCc1cc2c(N3CCc4c(cc(Cn5ccnc5)cc4-c4cn(C)nc4C(F)(F)F)C3=O)ccnc2c(OC)n1 + Cc1cccc(N(C)C(=O)C2C(O)CCN2c2nc(C)cc(C(F)(F)F)c2C#N)c1 ), measured pIC50 is < 5.00

Recorded pIC50 (molecule O=C(Nc1ccc(O)c(NS(=O)(=O)c2ccc(F)cc2)c1)c1ccc(-c2ccccc2)cc1 + Nc1ccc(C#CCN(C(=O)Cc2ncc(C(F)(F)F)cc2C(F)(F)F)c2ccc(F)cc2)nn1 ): < 5.00

Notebook: O=C(c1cc(Cc2n[nH]c(=O)c3ccccc23)ccc1F)N1CCN(C(=O)C2CC2)CC1 + COC1C(OC(N)=O)C(O)C(Oc2ccc3c(O)c(NC(=O)c4ccc(O)c(CC=C(C)C)c4)c(=O)oc3c2C)OC1(C)C , pIC50 read as < 5.00

So, CNCc1ccc(-c2[nH]c3cc(F)cc4c3c2CCNC4=O)cc1 + Nc1ccc(C#CCN(C(=O)Cc2ncc(C(F)(F)F)cc2C(F)(F)F)c2ccc(F)cc2)nn1 ? Its pIC50 was < 5.00
